Target: UniProtKB P81425
Sequence (P81425 whole entry): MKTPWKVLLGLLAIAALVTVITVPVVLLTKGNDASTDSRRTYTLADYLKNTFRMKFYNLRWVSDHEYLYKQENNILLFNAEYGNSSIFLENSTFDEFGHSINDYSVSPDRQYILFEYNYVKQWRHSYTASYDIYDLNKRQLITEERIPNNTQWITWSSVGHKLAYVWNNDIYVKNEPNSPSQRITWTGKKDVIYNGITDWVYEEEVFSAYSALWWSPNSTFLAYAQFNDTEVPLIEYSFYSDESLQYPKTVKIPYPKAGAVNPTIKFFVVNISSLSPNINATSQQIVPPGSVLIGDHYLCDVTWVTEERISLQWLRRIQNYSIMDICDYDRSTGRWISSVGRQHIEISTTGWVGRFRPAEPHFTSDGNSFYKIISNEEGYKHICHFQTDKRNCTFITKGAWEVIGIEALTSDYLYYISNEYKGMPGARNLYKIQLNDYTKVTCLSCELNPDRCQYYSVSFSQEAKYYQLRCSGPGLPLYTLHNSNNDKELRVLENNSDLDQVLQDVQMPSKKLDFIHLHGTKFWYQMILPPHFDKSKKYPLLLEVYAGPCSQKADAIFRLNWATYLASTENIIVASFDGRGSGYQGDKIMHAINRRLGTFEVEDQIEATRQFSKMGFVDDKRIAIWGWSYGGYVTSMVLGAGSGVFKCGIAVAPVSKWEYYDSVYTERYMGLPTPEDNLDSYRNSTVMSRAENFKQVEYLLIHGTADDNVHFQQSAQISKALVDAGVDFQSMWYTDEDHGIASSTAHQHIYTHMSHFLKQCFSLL
measure: IC50 (µM)

1) C[C@H](NC(=O)[C@@H]1CCCN1C(=O)[C@@H]1CCCN1C(=O)[C@@H](O)[C@H](N)Cc1ccccc1)C(N)=O ... 1100

====

Biological target: dipeptidyl-peptidase I-like activity
Assay: Specificity of apstatin: dipeptidyl-peptidase I-like activity
Settings: detergent extract of bovine lung; Gly-Phe-β-NA, pH 6.5, HPLC-2
Protocol: Specificity of Apstatin--Apstatin was assayed for its ability to inhibit several other peptidases. […] Unless otherwise indicated, the source of each enzyme activity was a detergent extract of bovine lung prepared as described in (12-13). […]
pIC50: −log10 of the molar value.
measure: pIC50

1) C[C@H](NC(=O)[C@@H]1CCCN1C(=O)[C@@H]1CCCN1C(=O)[C@@H](O)[C@H](N)Cc1ccccc1)C(N)=O ... < 3.10
